# system_name: T1, CD19 (UniProt P15391 20-556, limits assumed)
# T1 sequence (looked up): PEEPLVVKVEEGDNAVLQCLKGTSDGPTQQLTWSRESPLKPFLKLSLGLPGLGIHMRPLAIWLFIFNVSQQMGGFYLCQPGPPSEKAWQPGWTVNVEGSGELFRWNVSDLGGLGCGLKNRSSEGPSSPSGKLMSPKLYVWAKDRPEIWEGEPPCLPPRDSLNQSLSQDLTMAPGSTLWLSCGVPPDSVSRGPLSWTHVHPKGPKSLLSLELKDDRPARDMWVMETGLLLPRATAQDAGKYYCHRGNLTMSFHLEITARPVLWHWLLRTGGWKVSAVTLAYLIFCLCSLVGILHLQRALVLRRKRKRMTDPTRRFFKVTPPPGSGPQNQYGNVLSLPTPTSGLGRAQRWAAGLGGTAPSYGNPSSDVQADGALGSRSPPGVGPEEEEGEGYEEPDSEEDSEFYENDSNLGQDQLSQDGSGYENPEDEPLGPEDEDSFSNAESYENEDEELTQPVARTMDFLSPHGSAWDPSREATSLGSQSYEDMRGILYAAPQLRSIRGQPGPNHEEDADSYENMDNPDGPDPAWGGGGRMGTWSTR
# protocol: cell-based or functional assay
The following binders are listed with their measured IC50, in vitro cytotoxicity, Ramos cells values.
Kindly provide the numeric value in ng/mL only, without the unit symbol.

Worked cases, answers included:
- binder: "hBU12-16 (antibody, V domains shown, antibody carries drug-linker 16 (MDpr-Lys(PEG24)-glucuronide-MMAE), 8 drugs per antibody) VH: QVQLQESGPGLVKPSQTLSLTCTVSGGSISTSGMGVGWIRQHPGKGLEWIGHIWWDDDKRYNPALKSRVTISVDTSKNQFSLKLSSVTAADTAVYYCARMELWSYYFDYWGQGTLVTVSS VL: EIVLTQSPATLSLSPGERATLSCSASSSVSYMHWYQQKPGQAPRLLIYDTSKLASGIPARFSGSGSGTDFTLTISSLEPEDVAVYYCFQGSVYPFTFGQGTKLEIKR"
  IC50, in vitro cytotoxicity, Ramos cells / ng/mL: 4
- binder: "hBU12-19 (antibody, V domains shown, antibody carries drug-linker 19 (MDpr-Lys(PEG4[PEG4]3)-glucuronide-MMAE, branched PEG), 8 drugs per antibody) VH: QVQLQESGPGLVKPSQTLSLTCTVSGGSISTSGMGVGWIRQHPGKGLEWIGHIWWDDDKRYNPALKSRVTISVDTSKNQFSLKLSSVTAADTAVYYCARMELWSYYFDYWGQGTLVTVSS VL: EIVLTQSPATLSLSPGERATLSCSASSSVSYMHWYQQKPGQAPRLLIYDTSKLASGIPARFSGSGSGTDFTLTISSLEPEDVAVYYCFQGSVYPFTFGQGTKLEIKR"
  IC50, in vitro cytotoxicity, Ramos cells / ng/mL: 2

In the following, a different binder is considered.
Exercise: Would you mind telling me what IC50, in vitro cytotoxicity, Ramos cells value was observed for hBU12-42 (antibody, V domains shown, antibody carries drug-linker 42 (MDpr-Lys(PEG4)-glucuronide-MMAE), 8 drugs per antibody) VH: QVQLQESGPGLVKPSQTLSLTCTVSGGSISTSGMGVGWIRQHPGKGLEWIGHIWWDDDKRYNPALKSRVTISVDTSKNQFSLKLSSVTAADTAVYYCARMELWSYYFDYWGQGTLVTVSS VL: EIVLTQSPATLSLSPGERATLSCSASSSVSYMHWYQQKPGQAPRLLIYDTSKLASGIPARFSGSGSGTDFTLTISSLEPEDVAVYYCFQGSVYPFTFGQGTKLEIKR ?
Key: 3
